- target_desc: Human neutrophil elastase (Homo sapiens)
- Sequence (P08246 30-267): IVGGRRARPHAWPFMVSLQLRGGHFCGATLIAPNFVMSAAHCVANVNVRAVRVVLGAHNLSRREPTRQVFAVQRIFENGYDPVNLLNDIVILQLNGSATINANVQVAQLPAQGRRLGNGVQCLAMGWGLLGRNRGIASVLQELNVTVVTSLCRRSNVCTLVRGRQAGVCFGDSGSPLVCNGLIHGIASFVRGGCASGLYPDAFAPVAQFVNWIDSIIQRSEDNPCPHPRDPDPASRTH
- test_name: Human Neutrophil Elastase Assay
- assay_setup: Neutrophil Elastase assay; substrate MeOSuc-Ala-Ala-Pro-Val-AMC 250 μM; 15 min preincubation, 60 min incubation at room temperature; pH 7.5
metric: IC50 (nM)

# compound, value_unit, endpoint_result
rows = [
    ("CNC(=O)c1cn(C(C)c2ccc(C#N)cc2)c(C)c(-c2cccc(C(F)F)c2)c1=O (single isomer, unassigned) [Example 8A]", "nM", 1.2),
    ("Cc1c(-c2cccc(C(F)(F)F)c2)c(=O)c(C(=O)NCC2CCN(C)CC2)cn1Cc1ccc(C#N)cc1 [Example 1.2]", "nM", 48.3),
    ("CNC(=O)c1cn(Cc2ccc(C#N)cc2)c(C)c(-c2cccc(C(F)(F)F)c2)c1=O [Example 1.11]", "nM", 14.4),
    ("Cc1c(-c2cccc(C(F)F)c2)c(=O)c(C(N)=O)cn1C(C)c1ccc(C#N)cc1 (centres unmarked) [Example 8.22]", "nM", 21.6),
    ("Cc1c(-c2ccnc(C(F)(F)F)c2)c(=O)c(C(=O)NCC(F)(F)F)cn1C(C)c1ccc(C#N)cc1 (centres unmarked) [Example 9.43]", "nM", 11.5),
    ("Cc1c(-c2cccc(C(F)(F)F)c2)c(=O)c(C(=O)NCC(=O)N2CCCC2)cn1Cc1ccc(C#N)cc1 [Example 1.54]", "nM", 41.5),
    ("Cc1c(-c2cccc(C(F)F)c2)c(=O)c(C(=O)NCc2ccno2)cn1C(C)c1ccc(C#N)cc1 (centres unmarked) [Example 8.17]", "nM", 3.1),
    ("COc1cncc(-c2c(C)n(Cc3ccc(C#N)cc3)cc(C(=O)NCc3ccc(S(C)(=O)=O)cc3)c2=O)c1 [Example 6.7]", "nM", 75.3),
    ("Cc1c(-c2ccnc(C(F)(F)F)c2)c(=O)c(C(=O)NCC#N)cn1C(C)c1ccc(C#N)cc1 (centres unmarked) [Example 9.13]", "nM", 1.7),
    ("Cc1c(-c2cccc(C(F)(F)F)c2)c(=O)c(C(=O)NCc2ccnn2C)cn1Cc1ccc(C#N)cc1 [Example 1.33]", "nM", 3.7),
    ("Cc1cncc(-c2c(C)n(Cc3ccc(C#N)cc3)cc(C(=O)NCc3ccc(S(C)(=O)=O)cc3)c2=O)c1 [Example 6.4]", "nM", 19.3),
    ("CNC(=O)c1cn(C2CCc3cc(C#N)ccc32)c(C)c(-c2cccc(C(F)(F)F)c2)c1=O (centres unmarked) [Example 37]", "nM", 13.7),
    ("CCNC(=O)c1cn(C(C)c2ccc(C#N)cn2)c(C)c(-c2cccc(C(F)(F)F)c2)c1=O (centres unmarked) [Example 17]", "nM", 4.5),
    ("CNC(=O)c1cn(C(C)c2ccc(C#N)cc2)c(C)c(-c2cccc(C(F)F)c2)c1=O (single isomer, unassigned) [Example 8B]", "nM", 522),
    ("CNC(=O)c1cn(C(C)c2ccc(C#N)cc2)c(C)c(-c2cccc(CF)c2)c1=O (centres unmarked) [Example 31]", "nM", 7.8),
    ("Cc1c(-c2cccc(C(F)(F)F)c2)c(=O)c(C(=O)NCCF)cn1C(C)c1ccc(C#N)cn1 (centres unmarked) [Example 47.6]", "nM", 12),
    ("Cc1c(-c2cccc(C(F)F)c2)c(=O)c(C(=O)NCc2cccnc2)cn1C(C)c1ccc(C#N)cc1 (centres unmarked) [Example 8.18]", "nM", 2.4),
    ("Cc1c(-c2cccc(C(F)(F)F)c2)c(=O)c(C(=O)N[C@H]2CCNC2=O)cn1Cc1ccc(C#N)cc1 [Example 1.58]", "nM", 8.1),
    ("Cc1c(-c2cccc(C(F)(F)F)c2)c(=O)c(C(=O)NCCCO)cn1Cc1ccc(C#N)cc1 [Example 1.9]", "nM", 8.4),
    ("COC(=O)C(C)NC(=O)c1cn(C(C)c2ccc(C#N)cc2)c(C)c(-c2ccnc(C(F)(F)F)c2)c1=O (centres unmarked) [Example 9.33]", "nM", 23.1),
    ("CNC(=O)c1cn(Cc2ccc(F)cc2)c(C)c(-c2cccc(C(F)(F)F)c2)c1=O [Example 3.3]", "nM", 51),
    ("CCCNC(=O)c1cn(C(C)c2ccc(C#N)cc2)c(C)c(-c2ccnc(C(F)(F)F)c2)c1=O (centres unmarked) [Example 9.14]", "nM", 7),
    ("Cc1c(-c2ccnc(C(F)(F)F)c2)c(=O)c(C(=O)NCC2CCOC2)cn1C(C)c1ccc(C#N)cc1 (centres unmarked) [Example 9.21]", "nM", 9.5),
    ("CNC(=O)c1cn(C(C)c2ccc(C#N)cc2)c(C)c(-c2ccnc(C(F)(F)F)c2)c1=O (single isomer, unassigned) [Example 9A]", "nM", 3.7),
    ("Cc1c(-c2cccc(C(F)(F)F)c2)c(=O)c(C(=O)NCC(F)(F)F)cn1C(C)c1ccc(C#N)cn1 (centres unmarked) [Example 47.3]", "nM", 10.7),
    ("Cc1c(-c2cccc(C(F)F)c2)c(=O)c(C(=O)NCc2ccnn2C)cn1C(C)c1ccc(C#N)cc1 (centres unmarked) [Example 8.16]", "nM", 2.4),
    ("CNC(=O)c1cn(Cc2ccc(C#N)cc2OC)c(C)c(-c2cccc(C(F)(F)F)c2)c1=O [Example 3.7]", "nM", 26.4),
    ("Cc1c(-c2cccc(C(F)(F)F)c2)c(=O)c(C(=O)NCCCN(C)C)cn1Cc1ccc(C#N)cc1 [Example 1.4]", "nM", 27.6),
    ("Cc1c(-c2cccc(C(F)(F)F)c2)c(=O)c(C(=O)NCCOCCOCCO)cn1Cc1ccc(C#N)cc1 [Example 1.25]", "nM", 10.9),
]

Cited source: patent USRE46630E1
